target: hMITF-WT (Homo sapiens, UniProt O75030-9 1-419); test: single-molecule fluorescence anisotropy; 300 mM KCl; Single-molecule: 0.5 nM DNA, 10 mM Tris pH 7.4, 0.1 mM EDTA, 165 or 300 mM KCl, 1 mM MgCl2, 143 mM 2-ME, 0.01% Tween-20, 0.1 mg/mL BSA. EMSA: 10 mM Hepes pH 7.9, 50 mM NaCl, 5 mM MgCl2, 0.1 mM EDTA, 2 mM DTT, 5% ethylene glycol, 5% glycerol, BSA, 30 min on ice; details: protein: recombinant; tags: none (His6-SUMO removed by ULP-1); unlabeled; chain copies: 2; label: Cy3B (5' positive strand); CF660R (5' negative strand); blunt
Sequence (O75030 other isoform, or with tags, fused parts or gaps): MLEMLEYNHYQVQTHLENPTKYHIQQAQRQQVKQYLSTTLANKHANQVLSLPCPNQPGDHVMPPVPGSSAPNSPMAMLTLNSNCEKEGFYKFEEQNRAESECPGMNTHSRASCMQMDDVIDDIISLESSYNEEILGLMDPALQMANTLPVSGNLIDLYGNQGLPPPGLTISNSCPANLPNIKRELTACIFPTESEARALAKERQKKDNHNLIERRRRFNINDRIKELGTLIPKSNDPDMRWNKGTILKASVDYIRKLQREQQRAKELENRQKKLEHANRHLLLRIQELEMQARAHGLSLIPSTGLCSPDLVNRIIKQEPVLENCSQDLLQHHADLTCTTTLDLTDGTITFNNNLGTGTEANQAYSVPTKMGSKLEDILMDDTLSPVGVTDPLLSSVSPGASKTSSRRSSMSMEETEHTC
assay-endpoint: pKd
Would you please state pKd, meaning minus log10 of the concentration in mol/L, as a bare number?

Query: # get_value(readout='pKd', item= M-box smFRET probe (dsDNA, 5' C6-amino linker on both strands) DNA 1: GAGATCATGTGTTGA DNA 2: TCAACACATGATCTC )
Response: 8.72
